Cited source for all entries: the supplement of paper PMC8671470

Listed here: items and their measured cell viability.
- Test system: KCL-22
- PROTOCOL TEXT: cell viability (% survival relative to DMSO control, bortezomib = 0%); higher = less cytotoxic
- CONDITION DETAILS: 1000 nM; 72 h
Counter-ions that a name gives are not always drawn.
Enter your answer as a number in %; do not include the unit.

compound=O=c1oc2c(O)c(O)cc3c(=O)oc4c(O)c(O)cc1c4c23 measurement_target=KCL-22 measurement_type="cell viability" observed_measurement=97.8
compound="Cc1cn([C@H]2C[C@H](O)[C@@H](COP(=O)(O)OP(=O)(O)O)O2)c(=O)[nH]c1=O [Thymidine diphosphate]" measurement_target=KCL-22 measurement_type="cell viability" observed_measurement=97.7

Fill in: cell viability of O=C(O)C[C@@]1(O)C[C@@H](CCCCCCc2ccc(Cl)cc2Cl)OC1=O is ___
97.5

Fill in: cell viability of CC(C)c1onc(-c2c(Cl)cccc2Cl)c1COc1ccc(/C=C/c2cccc(C(=O)O)c2)c(Cl)c1 is ___
85.6

Fill in: cell viability of O=C1c2cc([N+](=O)[O-])ccc2-n2c1nc1ccccc1c2=O is ___
37

Fill in: cell viability of O=C(O)C(=O)CBr is ___
93.1

Fill in: cell viability of CCCCCCCCCCC[C@@H](C[C@@H]1OC(=O)[C@H]1CCCCCC)OC(=O)[C@H](CC(C)C)NC=O is ___
97

Fill in: cell viability of COc1ccc(S(=O)(=O)N2CCN(S(=O)(=O)c3ccc4c(c3)OCCO4)CC2)cc1 is ___
98.1

Fill in: cell viability of Nc1ccccc1C(=O)C[C@H](N)C(=O)O is ___
103

Fill in: cell viability of COC(=O)[C@]12CCC(C)(C)C[C@H]1[C@H]1C(=O)C=C3[C@@]4(C)C=C(C#N)C(=O)C(C)(C)[C@@H]4CC[C@@]3(C)[C@]1(C)CC2 is ___
56.2

Fill in: cell viability of Cc1cc(CS(=O)(=O)c2ccccc2)cc(OCc2ccc(CN3CCC[C@@H]3CO)cc2)c1 [PF-543 hydrochloride] is ___
82.5

Fill in: cell viability of O[C@H]1[C@H]2[C@H](O)CCCN2C[C@H]1O is ___
98.1

Fill in: cell viability of CC[C@@]1(O)C(=O)OCc2c1cc1n(c2=O)Cc2cc3c(CN(C)C)c(O)ccc3nc2-1 is ___
5.33

Fill in: cell viability of CCOP(=O)(OCC)C(=Cc1cc(C(C)(C)C)c(O)c(C(C)(C)C)c1)P(=O)(OCC)OCC is ___
108

* * *

- Test system: myeloid leukemia patient primary cells Pat.8
- PROTOCOL TEXT: cell viability (% survival relative to DMSO control); higher = less cytotoxic
- CONDITION DETAILS: 1 nM; 72 h
MEASUREMENT TYPE: cell viability (%)
Enter your answer as a number in %; do not include the unit.

structure_smiles=O=C(O)C1=CC(=C(c2ccc(O)c(C(=O)O)c2)c2ccc(O)c(C(=O)O)c2)C=CC1=O observed_measurement=92.5
structure_smiles=C=C(C)[C@H]1Cc2c(ccc3c2O[C@@H]2COc4cc(OC)c(OC)cc4[C@@H]2C3=O)O1 observed_measurement=70.8

Fill in: cell viability of O=C(C1CC1)N1CC[C@@H](C=C2NNC(=O)N2c2ccc(-c3ccc4occc4c3)cc2)C1 is ___
85.5

Fill in: cell viability of Oc1ccc(Nc2nc(-c3ccc(Cl)cc3)cs2)cc1 is ___
82.4
